Data origin, for the record: paper doi:10.1101/2021.04.25.441314

# measuredTarget: Hfq R16A (rim) (Escherichia coli, UniProt P0A6X3 1-102, R16A)
# experimentSummary: filter binding
measuredMetric: Kd (pM)

* AgvB-U9 (structured_RNA) RNA: GGCGAUAACACAACAAUAUCAGUAUCUCAUGCUAUUGCCCGAACCCAUUCGGGCAUUUUUUUUU | 190
